Respond with Met for logP (pH = 2.3) values of 2 and above, Not met for values below.

Worked set:
[
  {
    "Compound": "COCN1CCN(Cc2cnc(Cl)s2)C1=N[N+](=O)[O-]",
    "Group": "Not met"
  },
  {
    "Compound": "COCCOCN1CCN(Cc2ccc(Cl)nc2)C1=NC#N",
    "Group": "Not met"
  },
  {
    "Compound": "CCCCCCOCN1CCN(Cc2ccc(Cl)nc2)C1=N[N+](=O)[O-]",
    "Group": "Met"
  }
]

Record CCC(=O)OCN1CCN(Cc2ccc(Cl)nc2)C1=N[N+](=O)[O-] ; criterion: logP (pH = 2.3) no lower than 2. Met?
Not met

Record CCCCOCn1ccn(Cc2ccc(Cl)nc2)c1=N[N+](=O)[O-] ; criterion: logP (pH = 2.3) no lower than 2. Met?
Not met

Record CCOCN1CCN(Cc2cnc(Cl)s2)C1=N[N+](=O)[O-] ; criterion: logP (pH = 2.3) no lower than 2. Met?
Not met

Record CCOCn1ccn(Cc2ccc(Cl)nc2)c1=N[N+](=O)[O-] ; criterion: logP (pH = 2.3) no lower than 2. Met?
Not met

Record COCN1CCN(Cc2ccc(Cl)nc2)C1=NC#N ; criterion: logP (pH = 2.3) no lower than 2. Met?
Not met

Record CCCCCCCCOCN1CCN(Cc2ccc(Cl)nc2)C1=N[N+](=O)[O-] ; criterion: logP (pH = 2.3) no lower than 2. Met?
Met

Record CCN(CC)CCOCN1CCN(Cc2ccc(Cl)nc2)C1=N[N+](=O)[O-] ; criterion: logP (pH = 2.3) no lower than 2. Met?
Not met

Record CC(C)OCN1CCN(Cc2cnc(Cl)s2)C1=N[N+](=O)[O-] ; criterion: logP (pH = 2.3) no lower than 2. Met?
Not met

Record O=[N+]([O-])N=C1N(COCCBr)CCN1Cc1ccc(Cl)nc1 ; criterion: logP (pH = 2.3) no lower than 2. Met?
Not met

Record CC(C)COCN1CCN(Cc2cnc(Cl)s2)C1=N[N+](=O)[O-] ; criterion: logP (pH = 2.3) no lower than 2. Met?
Met

Record COCn1ccn(Cc2ccc(Cl)nc2)c1=N[N+](=O)[O-] ; criterion: logP (pH = 2.3) no lower than 2. Met?
Not met

* * *

Quantity measured: logP (pH = 2.3)
Just the number, please.

[
  {
    "Molecule": "CC(C)COCN1CCN(Cc2ccc(Cl)nc2)C1=N[N+](=O)[O-]",
    "logP (pH = 2.3)": 2.00
  },
  {
    "Molecule": "CCCCOCN1CCN(Cc2ccc(Cl)nc2)C1=N[N+](=O)[O-]",
    "logP (pH = 2.3)": 1.98
  },
  {
    "Molecule": "CCC(C)OCN1CCN(Cc2ccc(Cl)nc2)C1=N[N+](=O)[O-] (centres unmarked)",
    "logP (pH = 2.3)": 1.86
  },
  {
    "Molecule": "CCCOCN1CCN(Cc2ccc(Cl)nc2)C1=N[N+](=O)[O-]",
    "logP (pH = 2.3)": 1.64
  },
  {
    "Molecule": "COCCOCN1CCN(Cc2ccc(Cl)nc2)C1=N[N+](=O)[O-]",
    "logP (pH = 2.3)": 1.16
  },
  {
    "Molecule": "CCCCCOCN1CCN(Cc2ccc(Cl)nc2)C1=N[N+](=O)[O-]",
    "logP (pH = 2.3)": 2.35
  }
]

What measured logP (pH = 2.3) goes with CCCOCN1CCN(Cc2ccc(Cl)nc2)C1=NC#N ?
1.89

What measured logP (pH = 2.3) goes with CC(C)OCN1CCCN(Cc2ccc(Cl)nc2)C1=N[N+](=O)[O-] ?
1.34
